- target or test system: T1, CD101 (human, UniProt Q93033 21-1021)
- T1 chain: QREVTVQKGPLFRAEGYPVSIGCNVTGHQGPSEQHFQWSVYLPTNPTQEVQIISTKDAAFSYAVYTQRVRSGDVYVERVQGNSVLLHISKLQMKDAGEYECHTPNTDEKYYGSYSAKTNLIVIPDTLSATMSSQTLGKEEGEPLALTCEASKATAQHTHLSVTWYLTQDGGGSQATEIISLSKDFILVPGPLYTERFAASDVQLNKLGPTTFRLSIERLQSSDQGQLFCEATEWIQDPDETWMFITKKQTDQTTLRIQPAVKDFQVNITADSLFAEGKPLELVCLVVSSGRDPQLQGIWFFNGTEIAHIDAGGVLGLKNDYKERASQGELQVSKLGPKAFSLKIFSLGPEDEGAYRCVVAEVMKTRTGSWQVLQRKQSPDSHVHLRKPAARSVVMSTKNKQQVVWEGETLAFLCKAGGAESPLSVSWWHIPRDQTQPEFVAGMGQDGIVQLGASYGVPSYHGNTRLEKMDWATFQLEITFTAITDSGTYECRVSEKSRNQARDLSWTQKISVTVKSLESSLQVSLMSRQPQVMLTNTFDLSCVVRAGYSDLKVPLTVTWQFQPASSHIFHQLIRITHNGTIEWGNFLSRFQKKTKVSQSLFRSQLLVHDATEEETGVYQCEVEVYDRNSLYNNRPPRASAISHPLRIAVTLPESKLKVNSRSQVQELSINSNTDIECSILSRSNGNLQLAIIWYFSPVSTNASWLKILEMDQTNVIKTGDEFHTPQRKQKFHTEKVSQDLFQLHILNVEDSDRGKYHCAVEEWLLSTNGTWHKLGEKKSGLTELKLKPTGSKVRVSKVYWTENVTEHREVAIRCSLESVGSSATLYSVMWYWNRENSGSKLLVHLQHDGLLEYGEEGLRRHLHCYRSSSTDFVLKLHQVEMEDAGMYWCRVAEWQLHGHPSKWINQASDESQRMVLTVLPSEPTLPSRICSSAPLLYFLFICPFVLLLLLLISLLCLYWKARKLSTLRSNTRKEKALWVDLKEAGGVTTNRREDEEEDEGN
- measurement description: FACS
quantity: EC50 (µg/mL)
Numeric only. Scale: µg/mL

Use the examples below as a reference point.
{"binder": "19-A11-H3-B11 chimeric antibody (CA1) (antibody, V domains shown) VH: EVQLQQSGAELVRPGASVKLSCKASGFTLTEYTIHWVKQRSGQGLEWIGWFYPGSGGIKYNEKFKDKATLTADESSSTVYMELSRLTSEDSAVYFCARHAFYRNYEYFDVWGTGTTVTVSS VL: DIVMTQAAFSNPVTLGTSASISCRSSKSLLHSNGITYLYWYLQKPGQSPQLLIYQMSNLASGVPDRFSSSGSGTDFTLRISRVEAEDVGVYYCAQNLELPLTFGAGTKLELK", "EC50 [µg/mL]": 6.62}
{"binder": "humanized antibody VH1-VL2 (hu.CA2) (antibody, V domains shown) VH: EVQLVQSGAEVKKPGASVKVSCKASGFTLTEYTIHWVRQAPGQGLEWIGWFYPGSGGIKYNEKFQDRVTLTADESISTVYMELSRLRSDDTAVYFCARHAFYRNYEYFDVWGTGTMVTVSS VL: DIVMTQAPLSLPVTPGTPASISCRSSKSLLHSNGITYLYWYLQKPGQSPQLLIYQMSNLASGVPDRFSSSGSGTDFTLKISRVEAEDVGVYYCAQNLELPLTFGAGTKLEIK", "EC50 [µg/mL]": 9.1}
{"binder": "19-A11-H3-B11-VH3VL2 humanized antibody (hu.CA4) (antibody, V domains shown) VH: EVQLVQSGAEVKKPGASVKVSCKASGFTLTEYTIHWVRQAPGQGLEWIGWFYPGSGGIKYNEKFQDRVTLTADTSISTVYMELSRLRSDDTVVYFCARHAFYRNYEYFDVWGTGTMVTVSS VL: DIVMTQAPLSLPVTPGTPASISCRSSKSLLHSNGITYLYWYLQKPGQSPQLLIYQMSNLASGVPDRFSSSGSGTDFTLKISRVEAEDVGVYYCAQNLELPLTFGAGTKLEIK", "EC50 [µg/mL]": 8.49}

Now consider the entry below.
input: # input binder: humanized antibody VH3-VL1 (hu.CA3) (antibody, V domains shown) VH: EVQLVQSGAEVKKPGASVKVSCKASGFTLTEYTIHWVRQAPGQGLEWIGWFYPGSGGIKYNEKFQDRVTLTADTSISTVYMELSRLRSDDTVVYFCARHAFYRNYEYFDVWGTGTMVTVSS VL: DIVMTQAPFSLPVTPGTPASISCRSSKSLLHSNGITYLYWYLQKPGQSPQLLIYQMSNLASGVPDRFSSSGSGTDFTLKISRVEAEDVGVYYCAQNLELPLTFGAGTKLEIK ; wanted: its EC50
output: 11
